# Target Or System: Adrenergic receptor alpha-2 (Rattus norvegicus, UniProt P22086+P19328+P22909)
# Method Notes: Antagonism of rat alpha-2 adrenergic receptor from rat vas deferens
# Format: functional
Parameter Measured: pA2

INSERT INTO assay_data (smi, observed_result) VALUES
  ('Cc1ccc(S(=O)(=O)N(CCNS(C)(=O)=O)[C@@H]2CCN3CCc4ccccc4[C@@H]3C2)cc1', 8.4),
  ('CS(=O)(=O)NCCN([C@@H]1CCN2CCc3ccccc3[C@@H]2C1)S(=O)(=O)c1ccccc1', 8.12),
  ('CCCS(=O)(=O)N(CCNS(C)(=O)=O)[C@@H]1CCN2CCc3ccccc3[C@@H]2C1', 8.29),
  ('CS(=O)(=O)NCCCCN([C@@H]1CCN2CCc3ccccc3[C@@H]2C1)S(C)(=O)=O', 5.66),
  ('COc1ccc(S(=O)(=O)N(CCNS(C)(=O)=O)[C@@H]2CCN3CCc4ccccc4[C@@H]3C2)cc1', 8.1),
  ('CCS(=O)(=O)NCCN([C@@H]1CCN2CCc3ccccc3[C@@H]2C1)S(C)(=O)=O', 7.73);
